System: DU-145 prostate
PROCEDURE SUMMARY: NCI tumour cell line growth inhibition, 48 h
ASSAY READOUT: TGI

Reference set (3 entries):
[
  {
    "COMPOUND": "O=c1oc2cc(O)ccc2c(O)c1C(c1ccc2ccccc2c1)c1c(O)c2ccc(O)cc2oc1=O",
    "TGI": "> 100 µM"
  },
  {
    "COMPOUND": "COc1ccccc1CN=C1NC(=O)/C(=C/c2ccc3ncccc3c2)S1",
    "TGI": "> 25 µM"
  },
  {
    "COMPOUND": "CC1OC1P(=O)(O)O (stereo unspecified)",
    "TGI": "> 100 µM"
  }
]

Each of the following entries comes with a recorded value; kindly state TGI for each.
1. N=C(N)SC(c1ccccc1)c1ccccc1
2. O=C(N/C(=C\NC1=NCCS1)C(=O)N1CSC[C@@H]1C(=O)O)c1ccccc1
3. O=C1c2ccccc2-c2nc(-c3cccs3)cc3c2c1nc1ccccc13
4. Cc1nc2ccc(F)cc2c2c1CCN2c1ccccc1

["25.4 µM", "> 100 µM", "31 µM", "> 100 µM"]

Source of measurements: PubChem BioAssay (NCI)
